- CONDITION_SUMMARY: in water, 303.15 K
PARAMETER_MEASURED: solubility (mole fraction)

In [3]: df
Out[3]:
                           smiles_string  result_value
0  CN1COCN(Cc2cnc(Cl)s2)C1=N[N+](=O)[O-]      0.000322

====

- CONDITION_SUMMARY: in DMSO, 318.15 K
PARAMETER_MEASURED: solubility (mole fraction)

                           smiles_string  result_value
0  CN1COCN(Cc2cnc(Cl)s2)C1=N[N+](=O)[O-]         0.147

====

- CONDITION_SUMMARY: in water, 318.15 K
PARAMETER_MEASURED: solubility (mole fraction)

>>> print(df.to_string())
                           smiles_string          parameter_measured  result_value
0  CN1COCN(Cc2cnc(Cl)s2)C1=N[N+](=O)[O-]  solubility (mole fraction)      0.000696

====

- CONDITION_SUMMARY: in water, 313.15 K
PARAMETER_MEASURED: solubility (mole fraction)

>>> print(df.to_string())
                           smiles_string  result_value
0  CN1COCN(Cc2cnc(Cl)s2)C1=N[N+](=O)[O-]      0.000538

====

- CONDITION_SUMMARY: in acetonitrile, 323.15 K
PARAMETER_MEASURED: solubility (mole fraction)

>>> print(df.to_string())
                           smiles_string  result_value
0  CN1COCN(Cc2cnc(Cl)s2)C1=N[N+](=O)[O-]        0.0414

====

- CONDITION_SUMMARY: in DMAc, 288.15 K
PARAMETER_MEASURED: solubility (mole fraction)

                           smiles_string          parameter_measured  result_value
0  CN1COCN(Cc2cnc(Cl)s2)C1=N[N+](=O)[O-]  solubility (mole fraction)        0.0802

====

- CONDITION_SUMMARY: in acetonitrile, 278.15 K
PARAMETER_MEASURED: solubility (mole fraction)

>>> print(df.to_string())
                           smiles_string          parameter_measured  result_value
0  CN1COCN(Cc2cnc(Cl)s2)C1=N[N+](=O)[O-]  solubility (mole fraction)       0.00675

====

- CONDITION_SUMMARY: in 1,4-dioxane, 308.15 K
PARAMETER_MEASURED: solubility (mole fraction)

>>> df
                           smiles_string          parameter_measured  result_value
0  CN1COCN(Cc2cnc(Cl)s2)C1=N[N+](=O)[O-]  solubility (mole fraction)       0.00626

====

- CONDITION_SUMMARY: in DMAc, 298.15 K
PARAMETER_MEASURED: solubility (mole fraction)

In [3]: df
Out[3]:
                           smiles_string  result_value
0  CN1COCN(Cc2cnc(Cl)s2)C1=N[N+](=O)[O-]        0.0976

Values were extracted from BigSolDB 2.1.
